test system: OVCAR-5 ovarian; assay: NCI-60 one-dose screen, 48 h; conditions: 10 µM unless noted
About 83,000 compounds went through this panel and 20% of them were active in at least one assay; those are over-represented in the sample as a whole. The source made the active and inactive calls. How the source made its calls: active means growth percent below 10; inactive means the rest.
# output must be one of YES (active), NO (inactive)

Example cases with answers are listed next.
INSERT INTO results (compound, group) VALUES
  ('COC(=O)[C@@H](C)C[C@H](Cc1ccccc1)NC(=O)c1csc([C@@H](C[C@H](C(C)C)N(C)C(=O)[C@@H](NC(=O)[C@H]2CCCCN2C)c2ccc(F)cc2)OC(C)=O)n1', 'NO'),
  ('CC(=O)O[C@H]1C(=O)[C@@]2(C)[C@H]([C@H](OC(=O)c3ccccc3)[C@]3(O)C[C@H](OC(=O)[C@H](OC(=O)OC[C@H]4COC(C)(C)O4)[C@@H](NC(=O)c4ccccc4)c4ccccc4)C(C)=C1C3(C)C)[C@]1(OC(C)=O)CO[C@@H]1C[C@@H]2O', 'YES'),
  ('C[C@]12CCc3sc(-c4ccccc4O)nc3C1=CC[C@@H]1[C@@H]2CC[C@]2(C)C(=O)CC[C@@H]12', 'NO');

Q: In this assay, the call recorded for [Au+].[N-]=C=O.c1ccc(CN2[CH-]N(Cc3ccccc3)C(c3ccccc3)=C2c2ccccc2)cc1 was what?
A: NO

Q: In this assay, the call recorded for CNC(=O)Oc1ccc(C(C)(C)C)cc1OC(=O)NC was what?
A: NO

Q: In this assay, the call recorded for CC(=O)O[C@H]1C(=O)[C@@]2(C)[C@H]([C@H](OC(=O)c3ccccc3)[C@]3(O)C[C@H](OC(=O)[C@H](OC(=O)OC[C@@H]4COC(C)(C)O4)[C@@H](NC(=O)c4ccccc4)c4ccccc4)C(C)=C1C3(C)C)[C@]1(OC(C)=O)CO[C@@H]1C[C@@H]2O was what?
A: YES

Q: In this assay, the call recorded for CC(=O)OC1C(OC/C2=C/C3[C@@H](C(C)C)CC=C(C)[C@@H]3CC(OC(=O)/C=C/c3cn(C)cn3)[C@]3(C)C=C[C@@]2(O)O3)OCC(O)C1O (some centres not stated) was what?
A: NO

###

The following molecules are shown together with reported growth values.
system: SF-295 CNS; test: NCI-60 one-dose screen, 48 h (100 = growth as untreated, 0 = no growth, -100 = all killed); conditions: 10 µM unless noted
The panel holds about 83,000 compounds, 20% with a hit somewhere; the sample as a whole holds those more often. Activity calls are given as the source filed them. The calls were made as follows: active = growth percent below 10; inactive = the rest.

Worked examples follow.
INSERT INTO assay_data (molecule, reported_value) VALUES
  ('CC(C)=CC1C(C(=O)OCc2cccc(Oc3ccccc3)c2)C1(C)C (stereo not given)', '90.3% (inactive)'),
  ('Nc1ccc(-c2nc3cc(F)ccc3[se]2)cc1F', '87.6% (inactive)'),
  ('C[C@@]1(CCCCCCCCCc2ccc(O)cc2)C[C@]2(C)OC(=O)C[C@@H]2OO1', '91.9% (inactive)'),
  ('Cc1ccc(S(=O)(=O)C(Cl)(Cl)Cl)cc1', '91.1% (inactive)');

Attention now shifts to the item below.
Q: Look up and state reported growth for Fc1ccc(N2COOC3(OOC2)C2CC4CC(C2)CC3C4)cc1
A: 87.5% (inactive)

These entries and their values trace back to PubChem BioAssay (NCI).
